Experiment: NCI Yeast Anticancer Drug Screen. Data for the mec2-1 strain (AID 157)
Settings: S. cerevisiae mec2-1 strain, at 50.0 µM, stronger effect = higher value
About 79,000 compounds went through this panel and 15% of them were active in at least one assay; those are over-represented in the sample as a whole.
measured metric: growth inhibition (%)
Supply the numeric figure in %, leaving out any unit text.

The cases that follow already have their growth inhibition on record.
CC(C)[C@@H]1CC[C@@H](C)C[C@H]1OC(=O)NN; 90.3
CCC[CH2][Sn]([CH2]CCC)([O]C(=O)c1cc(OC)c(OC)cc1OC)[O]C(=O)c1cc(OC)c(OC)cc1OC; 91.5
CC1C(CCC(=O)O)OC2CC3C4CCC5CC(O)CCC5(C)C4CCC3(C)C21 (centres undefined); 90

Continue with the next compound.
For `O=C(C(=S)c1ccccc1)N(Cc1ccccc1)Cc1ccccc1` the compound record lists growth inhibition as 88.9
